Assay: Absorbance properties of halogenated xanthenes (λmax, α)
Format: physicochemical
QUANTITY_MEASURED: α (L/cm/mol)
Respond numerically; units are L/cm/mol and should not be typed.

Past entries and their recorded results:
O=C(O)c1ccccc1-c1c2cc([N+](=O)[O-])c(=O)c(Br)c-2oc2c(Br)c(O)c([N+](=O)[O-])cc12 = 39000
CCOC(=O)c1ccccc1-c1c2cc(Br)c(=O)c(Br)c-2oc2c(Br)c([O-])c(Br)cc12.[K+] = 11000

Please give the documented α of `O=C1OC2(c3ccc(O)cc3Oc3cc(O)ccc32)c2c(Cl)c(Cl)c(Cl)c(Cl)c21`
29000

Answer with reported α of `O.O=C([O-])c1ccccc1-c1c2cc(I)c(=O)c(I)c-2oc2c(I)c([O-])c(I)cc12.[Na+].[Na+]`
91000

For `O=C1OC2(c3ccc(O)cc3Oc3cc(O)ccc32)c2ccccc21` , write its α.
64000

State its α for this compound: `O=C1OC2(c3cc(I)c(O)c(I)c3Oc3c2cc(I)c(O)c3I)c2c(Cl)c(Cl)c(Cl)c(Cl)c21`
100000

Find the measured α of `O=C1OC2(c3ccccc31)c1ccc(O)c(Br)c1Oc1c2ccc(O)c1Br` and report it.
14000

Indicate its recorded α; the compound in question is `O=C([O-])c1c(Cl)c(Cl)c(Cl)c(Cl)c1-c1c2cc(Br)c(=O)c(Br)c-2oc2c(Br)c([O-])c(Br)cc12.[Na+].[Na+]`
100000

Supply α value. Item: `O=C([O-])c1ccccc1-c1c2cc(Br)c(=O)c(Br)c-2oc2c(Br)c([O-])c(Br)cc12.[Na+].[Na+]`
91000

====

Assay: Photochemical quantum yields (triplet, singlet oxygen)
Format: physicochemical
Conditions: MeOH
QUANTITY_MEASURED: φ (singlet oxygen) MeOH
Reply with the value as a number alone.

Examples from the recorded data:
O.O=C([O-])c1ccccc1-c1c2cc(I)c(=O)c(I)c-2oc2c(I)c([O-])c(I)cc12.[Na+].[Na+] [Erythrosin B] = 0.62
CCN(CC)CC.CCOC(=O)c1c(Cl)c(Cl)c(Cl)c(Cl)c1-c1c2cc(I)c(=O)c(I)c-2oc2c(I)c(O)c(I)cc12 [Rose Bengal Derivative I] = 0.74
O=C1OC2(c3cc(I)c(O)c(I)c3Oc3c2cc(I)c(O)c3I)c2c(Cl)c(Cl)c(Cl)c(Cl)c21 [Rose Bengal] = 0.76
O=C1OC2(c3ccc(O)cc3Oc3cc(O)ccc32)c2ccccc21 [Fluorescein] = 0.09

In one line, give reported φ (singlet oxygen) MeOH of the entry CCN(CC)CC.CCN(CC)CC.O=C(O)c1c(Cl)c(Cl)c(Cl)c(Cl)c1-c1c2cc(I)c(=O)c(I)c-2oc2c(I)c(O)c(I)cc12 [Rose Bengal Derivative II] .
0.72

Given O=C([O-])c1ccccc1-c1c2cc(Br)c(=O)c(Br)c-2oc2c(Br)c([O-])c(Br)cc12.[Na+].[Na+] [Eosin Y] , respond with its φ (singlet oxygen) MeOH.
0.39

====

Assay: Photochemical quantum yields (triplet, singlet oxygen)
Type: physicochemical
Conditions: MeOH
QUANTITY_MEASURED: φ (triplet) MeOH

O=C1OC2(c3ccc(O)cc3Oc3cc(O)ccc32)c2ccccc21 [Fluorescein] = 0.03
O.O=C([O-])c1ccccc1-c1c2cc(I)c(=O)c(I)c-2oc2c(I)c([O-])c(I)cc12.[Na+].[Na+] [Erythrosin B] = 0.62
O=C1OC2(c3cc(I)c(O)c(I)c3Oc3c2cc(I)c(O)c3I)c2c(Cl)c(Cl)c(Cl)c(Cl)c21 [Rose Bengal] = 0.76

For the next question, use this molecule.
Report φ (triplet) MeOH, nothing else, for this molecule: O=C([O-])c1ccccc1-c1c2cc(Br)c(=O)c(Br)c-2oc2c(Br)c([O-])c(Br)cc12.[Na+].[Na+] [Eosin Y]
0.28
